B1: VENTX (parent)
chain: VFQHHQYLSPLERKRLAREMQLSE

- Variants of: B1
- test_description: protein stability index of a GFP-peptide fusion (GPS, HEK-293T) (PSI 1-6); higher = more stable;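 note: lentivirally expressed fusions sorted by FACS into six bins by GFP to DsRed ratio, PSI derived from sequencing read proportions per bin multiplied by bin number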
- condition_summary: c terminus: a fixed tail appended
For each of the variants below, state its protein stability index.
Answers are plain numbers.

Give one value of protein stability index per listed variant.
1. E24Y
2. Y7R
3. K14D
4. L8M
5. R13A
6. M20Q
7. H5V

1. 2.07
2. 2.42
3. 3.01
4. 2.55
5. 2.32
6. 2.6
7. 2.78

Cited source: the supplement of paper PMC10567573
